Each item that follows carries a reported pIC50.
Test system: HT-29 cells
Test: SRB cytotoxicity assay, HT-29
Type: cell-based, human
Conditions: monolayer, 72 h exposure, ± SEM
pIC50: −log10 of the molar value.

{"columns": ["STRUCTURE_NOTATION", "TARGET_UNDER_TEST", "pIC50"],
 "data": [
  ["CCCNC(=O)/C(=C/c1cccnc1)NC(=O)/C=C/c1ccc(C)cc1", "HT-29 cells", "< 4.00"],
  ["CCCNC(=O)/C(=C/c1ccc([N+](=O)[O-])cc1)NC(=O)/C=C/c1ccc(C)cc1", "HT-29 cells", "< 4.00"],
  ["CCCNC(=O)/C(=C/c1ccc([N+](=O)[O-])cc1)NC(=O)/C=C/c1cccs1", "HT-29 cells", "< 4.00"]
]}
